Biological target: Alpha-bungarotoxin (Bungarus multicinctus)
Experiment: compounds binding labelled alpha-BTX control protein – biochemical, small-molecule microarray, Alexa647 label, 635/667 nm fluorescence, artefact control for SMM control protein annotation, profiling panel (AID 1117)
Conditions: alpha-BTX-A647 binding fluorescence, higher = more signal
Catalogue of composite z-score values
Response field accepts a number only; no unit should be typed.

Example entries begin here.
{"compound": "COCCOC(=O)N1C(=O)[C@@]2(c3cc(C#CC4=CCCCC4)ccc31)[C@H](c1ccc(OCCO)cc1)N1[C@H](c3ccccc3)[C@H](c3ccccc3)OC(=O)[C@H]1[C@@H]2C(=O)N1CCc2cc(OC)c(OC)cc2C1", "composite z-score": 0.595}
{"compound": "COCCOC(=O)N1C(=O)[C@@]2(c3cc(C#CCCO)ccc31)[C@H](c1ccc(OCCO)cc1)N1[C@H](c3ccccc3)[C@H](c3ccccc3)OC(=O)[C@H]1[C@@H]2C(N)=O", "composite z-score": 0.338}
{"compound": "O=C1OCC=C[C@H]2OC34C=CCN(CCN5CCOCC5)C(=O)[C@H]3N(CCO)C(=O)[C@@H]4[C@@H]12 (stereo partly specified)", "composite z-score": -0.283}
{"compound": "O=C1OCCC=C[C@H]2OC34C=CCN(c5ccc(Cl)cc5)C(=O)[C@H]3N(CCCO)C(=O)[C@@H]4C12 (stereo partly specified)", "composite z-score": 0.275}

Data request: Quick one: composite z-score for COC(=O)c1c(CC[C@@H](CO)NC(=O)N[C@@H](Cc2ccccc2)Cn2cc(-c3ccccn3)nn2)oc(C(=O)N2CCOCC2)c1C(=O)OC ?
Data returned: 0.0762

Data request: Using the record for Cc1ccc(/C=C/C=O)cc1 , report its composite z-score.
Data returned: 0.185

* * *

Below is a list of entries, each paired with its recorded composite Z-score value.
Assay: probe aXIP binding to arrayed compounds – biochemical, NeuroSMM set, 635/667 nm fluorescence, primary screen (AID 1119);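 also: probe is the protein aXip251-270 applied at 1 µg/mL to compound-printed slides; binding of probe to printed compounds measured as 667 nm fluorescence plus signal to noise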
Conditions: small-molecule microarray, higher = more signal, called active from +8 up or from −8 down
# print the numeric value only

{"molecule": "COC(=O)[C@@]1(Cc2ccccc2)[C@H]2c3cc(C(=O)N4CCCC4)n(Cc4c(CO)[nH]cc(C)c4=O)c3C[C@H]2CN1C(=O)c1ccccc1", "reading": -0.0461}

Data request: // lookup composite Z-score for COC(=O)[C@@]1(Cc2ccccc2)[C@H]2c3cc(C(=O)N(C)C)n(CCc4c[nH]c5ccc(O)cc45)c3C[C@H]2CN1C(=O)c1ccccc1
Data returned: 0.492

Data request: Requested read-out: composite Z-score. Entry: CN1C(=O)C2C=CC(C(O)c3ccccc3)N(N3CCCCC3)C2C1=O (stereo not drawn)
Data returned: -0.123

Data request: Name the reported composite Z-score value associated with the molecule C=CC[C@@]1(C(=O)N2CCCCC2)N=C(c2ccc(OCCCO)cc2)O[C@@H]1c1ccccc1N=[N+]=[N-]
Data returned: -0.797

Data request: Fill in: composite Z-score of [N-]=[N+]=Nc1ccccc1[C@H]1OC(c2ccc(OCCCO)cc2)=N[C@@]1(Cc1ccccc1)C(=O)N1CCOCC1 is ___
Data returned: 1.39

Data request: Item under review: O=C1C2C=CC(C(O)c3ccc4c(c3)OCO4)N(Nc3ccc([N+](=O)[O-])cc3)C2C(=O)N1c1ccccc1 (stereo not drawn) . Reported composite Z-score?
Data returned: -0.0054

Data request: Please give the measured composite Z-score for this molecule: CCCCCN1CC=CC23O[C@@H]4C=CCOC(=O)[C@@H]4[C@H]2C(=O)N(C(C)CO)[C@@H]3C1=O (stereo partly drawn)
Data returned: -0.294

Data request: Would you mind telling me what composite Z-score value was observed for CS(=O)(=O)CCOC(=O)C1=CC(CCCO)=CC(c2ccc(CN3CCCC3)cc2)N(Cc2cccc(OC(F)(F)F)c2)C=C1C(=O)OCCS(C)(=O)=O (stereo not drawn) ?
Data returned: 0.25

* * *

z-score values by entry
Experiment: optical density shifts of acrAB sulA E. coli – strain DRC41, OD650, 48 h, E. coli filamentation inducer project, primary screen (AID 1152);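 also: E. coli MC1000 strain DRC41 lacking acrAB efflux pump and sulA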
Settings: higher = more signal, called active from +8 up or from −8 down
Active and inactive are the calls of the source.

In the examples that follow, each entry is paired with its recorded z-score.
{"molecule": "[N-]=[N+]=Nc1ccccc1C[C@]1(C(=O)NCC(O)CO)N=C(c2ccc(OCCCO)cc2)O[C@H]1c1ccccc1 (some centres undefined)", "z-score": "-0.2 (inactive)"}
{"molecule": "CO[C@H]1O[C@H](CO)[C@@H](OC(=O)Nc2cccc(F)c2)[C@H](OC(=O)Nc2ccccc2)[C@H]1OC(=O)Nc1ccccc1", "z-score": "-0.198 (inactive)"}
{"molecule": "CO[C@H]1O[C@H](CO)[C@@H](OC(=O)Nc2ccccc2-c2ccccc2)[C@H](OC(=O)Nc2ccccc2-c2ccccc2)[C@@H]1OC(=O)Nc1ccccc1-c1ccccc1", "z-score": "1.23 (inactive)"}

Data request: Item under review: COc1cc2c(cc1OC)CN(C(=O)[C@H]1[C@@H]3C(=O)O[C@@H](c4ccccc4)[C@@H](c4ccccc4)N3[C@@H](c3ccccc3OCCO)[C@]13C(=O)Nc1ccc(C#CCCO)cc13)CC2 . Reported z-score?
Data returned: -0.667 (inactive)

Data request: Look at this molecule and give its reported z-score. CC(C)OC(=O)C=C1C[C@@H](c2cccc(Cl)c2)O[C@@H](c2cccc(Cl)c2)O1
Data returned: -0.411 (inactive)

Data request: Please look up its z-score: COCCOC(=O)N1C(=O)[C@@]2(c3cc(C#CC4=CCCCC4)ccc31)[C@H](c1ccc(OCCO)cc1)N1[C@H](c3ccccc3)[C@H](c3ccccc3)OC(=O)[C@H]1[C@@H]2C(=O)N1CCc2cc(OC)c(OC)cc2C1
Data returned: 1.8 (inactive)

Data request: Recorded z-score for CO[C@H]1O[C@H](CO)[C@@H](OC(=O)Nc2ccc(Oc3ccccc3)cc2)[C@H](OC(=O)Nc2ccc3c(c2)OCO3)[C@@H]1OC(=O)Nc1ccc2c(c1)OCO2 , please?
Data returned: 0.599 (inactive)

Data request: // returns reported z-score for input CS(=O)(=O)CCOC(=O)C1=CC(CCCO)=CC(C2CC2)N(Cc2cc3c(cc2Br)OCO3)C=C1C(=O)OCCS(C)(=O)=O (centres undefined)
Data returned: 0.307 (inactive)

* * *

Recorded z-score for the following compounds
Test: compound effects on hepatocellular carcinoma cell viability – HepG2, calcein-AM fluorescence, 48 h, basal, profiling panel (AID 1164); also: test concentration not given here
Details: higher = more signal
Give only the figure.

Some solved cases for reference:
{"compound": "CN(C)C(=O)[C@]1(Cc2ccccc2)N=C(c2ccc(OCCCO)cc2)O[C@@H]1c1ccccc1N=[N+]=[N-]", "reading": -0.987}
{"compound": "CCCCN1CC=CC23O[C@@H]4C=CCOC(=O)[C@@H]4[C@H]2C(=O)N(CCCCCCO)[C@@H]3C1=O (stereo partly specified)", "reading": 0.215}
{"compound": "COC(=O)[C@@]1(Cc2ccc(OC)cc2)[C@H]2c3cc(C(=O)N4CCCC4)n(CCSCCO)c3C[C@H]2CN1C(=O)c1ccccc1", "reading": -0.814}
{"compound": "CCOC(=O)C1=CC[C@@H](c2ccccc2)N(S(=O)(=O)c2ccc(C)cc2)[C@H]1c1ccc(CC)cc1", "reading": -0.217}
{"compound": "C=C(CCCC)/C(=C/C[C@@H](OC(C)=O)c1cccc(OCCO)c1)c1cnc2ccccc2c1", "reading": -0.0152}
{"compound": "COC(=O)[C@@]1(Cc2ccc(F)cc2)[C@H]2c3cc(C(=O)N(C)C)n(Cc4cc(C)n(C)n4)c3C[C@H]2CN1C(=O)c1ccccc1", "reading": -0.395}

Data request: Look up z-score: COCCOC(=O)N1C(=O)[C@@]2(c3cc(C#Cc4ccc(OC)cc4)ccc31)[C@H](c1ccc(O)cc1)N1[C@H](c3ccccc3)[C@H](c3ccccc3)OC(=O)[C@H]1[C@@H]2C(=O)Nc1nc2ccccc2s1
Data returned: 0.0165

Data request: Reported z-score for COc1cc(CO)cc(I)c1O[C@H]1C=C(C(=O)NCCO)C[C@@H](N(C(=O)c2cc3ccccc3oc2=O)C2CCCCCC2)[C@@H]1O : what is it?
Data returned: 1.11

Data request: Entry Cc1ccc(C2C3C(=O)CC4C(=O)N(c5ccccc5)C(=O)C4C3CN2S(=O)(=O)c2ccc(C)cc2)cc1 (stereo unspecified) : reported z-score = ?
Data returned: 0.261

Data request: Query (compound): CCCC1(C(=O)OC)C=C2C(=C(c3ccccc3)C(=O)C2C)CN1 (stereo unspecified) ; field requested: z-score
Data returned: -0.5

Data request: Consider the compound NC(=O)[C@@H]1[C@H]2C(=O)O[C@H](c3ccccc3)[C@H](c3ccccc3)N2[C@H](c2ccc(OCCO)cc2)[C@@]12C(=O)Nc1ccc(C#CC3=CCCCC3)cc12 and give its measured z-score.
Data returned: -3.51
